Recorded values, source ChEMBL document CHEMBL1129293.

target: UniProt:P18901; experiment: Effective concentration was determined for the adenylate cyclase activity in rat striatal tissue as a measure of Dopamine receptor D1 functional activity; type: tissue-based, Striatum
Sequence (P18901 whole entry): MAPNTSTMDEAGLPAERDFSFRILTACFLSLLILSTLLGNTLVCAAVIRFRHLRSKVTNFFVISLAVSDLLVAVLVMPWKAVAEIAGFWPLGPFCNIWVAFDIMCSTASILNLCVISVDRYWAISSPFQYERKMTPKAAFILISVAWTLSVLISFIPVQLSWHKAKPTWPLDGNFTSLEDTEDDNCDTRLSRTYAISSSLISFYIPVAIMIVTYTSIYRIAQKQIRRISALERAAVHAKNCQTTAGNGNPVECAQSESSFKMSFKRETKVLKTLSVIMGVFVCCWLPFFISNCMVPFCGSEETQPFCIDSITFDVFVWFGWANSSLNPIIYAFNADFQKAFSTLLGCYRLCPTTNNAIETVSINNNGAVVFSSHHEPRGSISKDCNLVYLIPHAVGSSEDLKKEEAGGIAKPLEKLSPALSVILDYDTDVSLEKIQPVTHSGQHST
QUANTITY KIND: EC50

{"COMPOUND": "CN1Cc2ccccc2[C@@H]2c3ccc(O)c(O)c3CC[C@H]21", "VALUE OBSERVED": "> 10 µM"}
{"COMPOUND": "Oc1cc2c(cc1O)CC(NCc1ccccc1)CC2 (stereo unspecified)", "VALUE OBSERVED": "> 10 µM"}
{"COMPOUND": "Oc1ccc2c(c1O)CCC(NCc1ccccc1)C2 (stereo unspecified)", "VALUE OBSERVED": "> 1 µM"}

Note down EC50 recorded for Oc1ccc([C@@H]2CNCc3sccc32)cc1O
0.7 µM

Answer with the recorded EC50 for the compound listed here: CCCN1Cc2ccccc2[C@@H]2c3cc(O)c(O)cc3CC[C@H]21
> 10 µM

Please supply the value of reported EC50 for the item C=CCN1Cc2ccccc2[C@@H]2c3cc(O)c(O)cc3CC[C@H]21
> 10 µM

###

target: D(2) dopamine receptor (Rattus norvegicus); experiment: Affinity towards Dopamine receptor D2 was evaluated in rat striatal membrane using [3H]spiperone as radioligand; format: cell membranes; conditions: Striatum
K0.5 overview
Give the number; nM is assumed, so skip it.

{"COMPOUND": "Oc1cc2c(cc1O)[C@H]1c3ccccc3CN[C@@H]1CC2 [DIHYDREXIDINE]", "TARGET DESC": "D(2) dopamine receptor (Rattus norvegicus)", "RESULT UNITS": "nM", "VALUE OBSERVED": 43.8}
{"COMPOUND": "NC[C@@H]1O[C@H](c2ccccc2)Cc2c1ccc(O)c2O", "TARGET DESC": "D(2) dopamine receptor (Rattus norvegicus)", "RESULT UNITS": "nM", "VALUE OBSERVED": 41}
{"COMPOUND": "CN1CCc2cc(Cl)c(O)cc2[C@@H](c2ccccc2)C1", "TARGET DESC": "D(2) dopamine receptor (Rattus norvegicus)", "RESULT UNITS": "nM", "VALUE OBSERVED": 600}
{"COMPOUND": "Oc1ccc([C@@H]2CNCc3sccc32)cc1O", "TARGET DESC": "D(2) dopamine receptor (Rattus norvegicus)", "RESULT UNITS": "nM", "VALUE OBSERVED": 142}
{"COMPOUND": "CN1Cc2ccccc2[C@@H]2c3ccc(O)c(O)c3CC[C@H]21", "TARGET DESC": "D(2) dopamine receptor (Rattus norvegicus)", "RESULT UNITS": "nM", "VALUE OBSERVED": 61}

Turning to the following compound.
Indicate its recorded K0.5; the compound in question is C=CCN1Cc2ccccc2[C@@H]2c3cc(O)c(O)cc3CC[C@H]21
182

###

species: Rattus norvegicus; assay: Evaluated for the maximum stimulation of adenylate cyclase in rat striatal tissue with respect to the maximum stimulation caused by dopamine; assay type: functional, Striatum
// reported Stimulation per item
Respond numerically; units are % and should not be typed.

Below are worked cases with known answers.
{"COMPOUND": "Oc1cc2c(cc1O)[C@H]1c3ccccc3CN[C@@H]1CC2 [DIHYDREXIDINE]", "Stimulation, %": 120}
{"COMPOUND": "C=CCN1CCc2c(cc(O)c(O)c2Cl)[C@@H](c2ccccc2)C1", "Stimulation, %": 94}
{"COMPOUND": "Oc1cc2c(cc1O)CC(NCc1ccccc1)CC2 (configuration not stated)", "Stimulation, %": 25}
{"COMPOUND": "Oc1ccc2c(c1O)CCC(NCc1ccccc1)C2 (configuration not stated)", "Stimulation, %": 38}
{"COMPOUND": "Oc1cc2c(cc1O)[C@@H]1c3ccccc3CN[C@@H]1CC2 (relative stereo)", "Stimulation, %": 17}
{"COMPOUND": "NC[C@@H]1O[C@H](c2ccccc2)Cc2c1ccc(O)c2O", "Stimulation, %": 96}

Provide Stimulation value for the following compound: CCCN1Cc2ccccc2[C@@H]2c3cc(O)c(O)cc3CC[C@H]21
36

Name the recorded Stimulation of the item NCCc1ccc(O)c(O)c1 in your answer.
100

Please report Stimulation for the following compound: Oc1ccc([C@@H]2CNCc3sccc32)cc1O
120
